Numbers sourced from patent US4377581A.

- assay-notes: Water solubility
- Type: physicochemical
- condition-label: Example 10 table; hydrochloride salts except as otherwise noted; solvent not given; read-out: Solubility
Listed here are compounds together with their documented solubility.
measure: solubility (mg/mL)

{"columns": ["compound", "experimental-value"],
 "data": [
  ["COc1ccc2c(N)nc(N3CCN(C(=O)c4ccccc4)CC3)nc2c1OC", 50],
  ["CCCCOC(=O)N1CCN(c2nc(N)c3ccc(OC)c(OC)c3n2)CC1", 90],
  ["COc1ccc2c(N)nc(N3CCN(Cc4ccccc4)CC3)nc2c1OC", 100],
  ["COc1ccc2c(N)nc(N3CCN(C(=O)C4CCCO4)CC3)nc2c1OC (stereo not shown)", 150],
  ["COc1ccc2c(N)nc(N3CCN(C(=O)c4cccs4)CC3)nc2c1OC", 11],
  ["C=CCN1CCN(c2nc(N)c3ccc(OC)c(OC)c3n2)CC1", 50],
  ["CCCOC(=O)N1CCN(c2nc(N)c3ccc(OC)c(OC)c3n2)CC1", 140]
]}
